measured-target: human TRPA1 (Homo sapiens)
Construct: expressed in transfected cells; host or cells: CHO cells
assay-explanation: TRPA1 FLIPR Tetra calcium influx assay in CHO cells (block of cinnamaldehyde-induced calcium influx)
Type: cell-based
test-context: Table 2; CHO cells expressing TRPA1; agonist cinnamaldehyde 75 uM; 20 min compound incubation; Hill coefficient fixed to 1.5; read-out: hTRPA1 CHO Ca2+ AUC EVO (IC50)
pIC50: −log10 of the molar value.
measurement-label: pIC50

smiles-representation | pIC50
C[C@H]1[C@H](F)C[C@@H](C(=O)NCc2cc(OCc3cncc(C(F)(F)F)c3)c(F)cn2)N1S(=O)(=O)c1ccc(F)cc1 | 6.98

A. C[C@@]1(F)C[C@@H](C(=O)NCc2cc(-c3cnc(C(F)(F)F)nc3)ncc2C(F)(F)F)N(S(=O)(=O)c2cc3cc(F)ccc3o2)C1
B. C[C@H]1[C@H](F)C[C@@H](C(=O)NCc2cc(-c3ncc(C(F)(F)F)s3)c(F)cn2)N1S(=O)(=O)c1ccc(F)cc1
C. C[C@H]1[C@H](F)C[C@@H](C(=O)NCc2cc(-c3cnc(C(F)(F)F)nc3)c(F)c(C3CC3)n2)N1S(=O)(=O)c1ccc(F)cc1
D. C[C@H]1[C@H](F)C[C@@H](C(=O)NCc2cc(-c3ccc(C(F)(F)F)cn3)ccn2)N1S(=O)(=O)c1ccc(F)cc1
Exercise: # ascending order, key=pIC50 Output the labels ranked as instructed.
Key: D, B, C, A
(D: 7.23, B: 7.65, C: 8.39, A: 8.71)

* * *

measured-target: human TRPA1 (Homo sapiens, UniProt O75762)
Construct: expressed in transfected cells; host or cells: CHO cells
Sequence (O75762 whole entry): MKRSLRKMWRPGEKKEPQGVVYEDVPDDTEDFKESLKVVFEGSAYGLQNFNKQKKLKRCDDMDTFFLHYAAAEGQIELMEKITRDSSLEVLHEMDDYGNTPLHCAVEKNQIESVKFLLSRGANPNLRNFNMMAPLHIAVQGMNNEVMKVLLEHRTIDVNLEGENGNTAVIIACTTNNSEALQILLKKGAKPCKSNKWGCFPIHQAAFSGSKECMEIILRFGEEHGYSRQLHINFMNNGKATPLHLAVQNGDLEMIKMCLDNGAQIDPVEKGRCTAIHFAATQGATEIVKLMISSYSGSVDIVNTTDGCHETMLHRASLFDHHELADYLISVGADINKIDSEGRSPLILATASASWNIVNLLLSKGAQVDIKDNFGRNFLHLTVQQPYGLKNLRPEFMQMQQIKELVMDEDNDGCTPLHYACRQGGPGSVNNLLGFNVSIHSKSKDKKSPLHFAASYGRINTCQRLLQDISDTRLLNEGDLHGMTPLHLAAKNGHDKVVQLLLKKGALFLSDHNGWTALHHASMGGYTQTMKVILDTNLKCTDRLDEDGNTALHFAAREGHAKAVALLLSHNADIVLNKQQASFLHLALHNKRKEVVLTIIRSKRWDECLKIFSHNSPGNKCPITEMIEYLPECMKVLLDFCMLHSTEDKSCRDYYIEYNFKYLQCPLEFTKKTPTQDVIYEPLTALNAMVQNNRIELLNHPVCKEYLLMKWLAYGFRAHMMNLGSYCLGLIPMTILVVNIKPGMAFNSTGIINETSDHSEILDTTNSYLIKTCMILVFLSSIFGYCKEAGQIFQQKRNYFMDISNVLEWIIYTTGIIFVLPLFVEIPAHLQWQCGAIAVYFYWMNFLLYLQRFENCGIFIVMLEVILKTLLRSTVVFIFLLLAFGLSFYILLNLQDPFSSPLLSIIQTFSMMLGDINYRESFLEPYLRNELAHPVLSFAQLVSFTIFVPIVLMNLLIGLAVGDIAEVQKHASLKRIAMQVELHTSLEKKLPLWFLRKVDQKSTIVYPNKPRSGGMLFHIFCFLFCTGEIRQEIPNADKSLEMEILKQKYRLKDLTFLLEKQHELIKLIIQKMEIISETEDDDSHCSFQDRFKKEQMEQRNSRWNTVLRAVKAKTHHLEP
assay-explanation: TRPA1 FLIPR Tetra calcium influx assay in CHO cells (block of cinnamaldehyde-induced calcium influx)
Format: cell-based
test-context: Table 2; CHO cells expressing TRPA1; agonist cinnamaldehyde 75 uM; 20 min compound incubation; Hill coefficient fixed to 1.5; read-out: hTRPA1 CHO Ca2+ AUC EVO (IC50)
measurement-label: IC50 (nM)

Field: example entries. Status: answers known.
molecule | measurement-label | readout-value
O=C(NCc1cc(-c2cnc(C(F)(F)F)nc2)ncn1)[C@@H]1CC[C@H](C2CC2)N1S(=O)(=O)c1ccc(F)cc1 | IC50 | 71.3
O=C(NCc1ccnc(-c2cnc(C(F)(F)F)nc2)c1)[C@@H]1C[C@@H]2C[C@@H]2N1S(=O)(=O)c1ccc(F)cc1 | IC50 | 23
C[C@H]1[C@H](F)C[C@@H](C(=O)NCc2cc(-c3cnc(C(F)(F)F)nc3)nc(C3CC3)c2)N1S(=O)(=O)c1ccc(F)cc1 | IC50 | 1.45

A. C[C@H]1[C@H](F)C[C@@H](C(=O)NCc2cc(-c3cnc(C(F)(F)F)nc3)ncc2F)N1S(=O)(=O)c1cc2ccccc2s1
B. O=C(NCc1cc(-c2cnc(C(F)(F)F)nc2)ncn1)[C@@H]1CCC2(CC2)N1S(=O)(=O)c1ccc(F)cc1
C. C[C@H]1[C@H](F)C[C@@H](C(=O)NCc2cc(OCCC3(C(F)(F)F)CC3)nc(C3CC3)n2)N1S(=O)(=O)c1ccc(F)cc1
Exercise: Please put the entries in order of rising IC50. Present the labels in the sequence the task asks for.
Key: A, C, B
(A: 5.61 nM, C: 22.4 nM, B: 71.2 nM)

I. O=C(NCc1cc(-c2cnc(C(F)(F)F)nc2)ncn1)[C@@H]1[C@H]2C[C@H]2CN1S(=O)(=O)c1ccc(F)cc1
II. Cc1cnc(-c2cnc(C(F)(F)F)nc2)cc1CNC(=O)[C@@H]1C[C@@H](F)[C@H](C)N1S(=O)(=O)c1ccc(F)cc1
III. C[C@H]1[C@H](F)C[C@@H](C(=O)NCc2cc(C3CCN(CC(F)(F)C(F)(F)F)CC3)ncc2F)N1S(=O)(=O)c1ccc(F)cc1
IV. C[C@H]1[C@H](F)C[C@@H](C(=O)NCc2cc(-c3ccc(OC(F)F)nc3)ncc2C(F)(F)F)N1S(=O)(=O)c1ccc(F)cc1
Exercise: List items by IC50 in falling order. // list labels; follow requested order
Key: I, II, III, IV

I. C[C@H]1[C@H](F)C[C@@H](C(=O)NCc2cc(-c3cnc(C(F)(F)F)nc3)nc(C3CC3)n2)N1S(=O)(=O)c1ccc(F)cc1
II. C[C@H]1[C@H](F)C[C@@H](C(=O)NCc2cc(-c3cnc(C(F)(F)F)c(C#N)c3)ncc2F)N1S(=O)(=O)c1ccc(F)cc1
III. COc1nn(-c2cnc(C(F)(F)F)nc2)cc1CNC(=O)[C@@H]1C[C@@H](F)[C@H](C)N1S(=O)(=O)c1ccc(F)cc1
IV. C[C@H]1[C@H](F)C[C@@H](C(=O)NCc2cc(-c3cnc(C(F)(F)F)nc3)nc(C3CC3)c2C#N)N1S(=O)(=O)c1ccc(F)cc1
Exercise: Which order do these items take when sorted by rising IC50? List them. Put the labels in the requested order and write them down.
Key: IV, I, III, II

I. C[C@H]1[C@H](F)C[C@@H](C(=O)NCc2cc(-c3cnc(C(F)(F)F)s3)c(F)cn2)N1S(=O)(=O)c1ccc(F)cc1
II. C[C@H]1[C@H](F)C[C@@H](C(=O)NCc2cc(N3CC[C@H](OC(F)(F)F)C(F)(F)C3)ncc2F)N1S(=O)(=O)c1ccc(F)cc1
Exercise: Returns: the argument ( I or II ) having the larger IC50. Selection: enter the item's label.
Key: I
(I: 33.7 nM, II: 8.36 nM)

I. C[C@H]1[C@H](F)C[C@@H](C(=O)NCc2cn([C@H]3CC[C@H](C(F)(F)F)CC3)nc2C(F)(F)F)N1S(=O)(=O)c1ccc(F)cc1 [Example 147]
II. C[C@H]1[C@H](F)C[C@@H](C(=O)NCc2cc(-c3cnc(C(F)(F)F)nc3)ncc2C(F)(F)F)N1S(=O)(=O)c1ccc(F)c(F)c1
III. C[C@H]1[C@H](F)C[C@@H](C(=O)NCc2cc(OCC3(C(F)(F)F)CC3)nc(C3CC3)n2)N1S(=O)(=O)c1ccc(F)cc1
IV. O=C(NCc1ccc(F)c(-c2cnc(C(F)(F)F)nc2)c1)[C@@H]1[C@@H]2[C@H](CN1S(=O)(=O)c1ccc(F)cc1)C2(F)F
Exercise: Please list these molecules in decreasing order of IC50. Please list the labels according to the requested order.
Key: III, IV, I, II
(III: 147 nM, IV: 45.7 nM, I: 24.5 nM, II: 0.836 nM)

1. C[C@H]1[C@H](F)C[C@@H](C(=O)NCc2cc(-c3cnc(C(F)(F)F)nc3)nc(N3CCC3)n2)N1S(=O)(=O)c1ccc(F)cc1
2. C[C@H]1[C@H](F)C[C@@H](C(=O)NCc2cc(-c3cnc(C(F)(F)F)nc3)ncc2CC(F)(F)F)N1S(=O)(=O)c1ccc(F)cc1
3. C[C@H]1[C@H](F)C[C@@H](C(=O)NCc2cc(-c3cnc(C(F)(F)F)nc3)ncc2OC(F)(F)F)N1S(=O)(=O)c1ccc(F)cc1
4. C[C@H]1[C@H](C#N)C[C@@H](C(=O)NCc2cc(-c3cnc(C(F)(F)F)nc3)ncc2F)N1S(=O)(=O)c1ccc(F)cc1
Exercise: Order the records by IC50, with each subsequent value no larger than the one before. Show the ranking through the labels, in the order asked for.
Key: 4, 1, 2, 3

* * *

measured-target: human TRPA1 (Homo sapiens, UniProt O75762)
Construct: expressed in transfected cells; host or cells: CHO cells
assay-explanation: TRPA1 FLIPR Tetra calcium influx assay in CHO cells (block of cinnamaldehyde-induced calcium influx)
Type: cell-based
test-context: Table 2; CHO cells expressing TRPA1; agonist cinnamaldehyde 75 uM; 20 min compound incubation; Hill coefficient fixed to 1.5; read-out: hTRPA1 CHO Ca2+ AUC EVO (IC50)
measurement-label: IC50 (nM)

Known results for molecules:
smiles-representation | IC50 / nM
C[C@H]1[C@H](F)C[C@@H](C(=O)NCc2cc(-c3cnc(C(F)(F)F)nc3)cc(F)c2F)N1S(=O)(=O)c1ccc(F)cc1 | 6.06
C[C@H]1[C@H](F)C[C@@H](C(=O)NCc2cc(-c3cnc(C(F)(F)F)nc3)ncc2F)N1S(=O)(=O)c1cc2cc(F)ccc2s1 | 9.67
O=C(NCc1cc(-c2cnc(C(F)(F)F)nc2)ncc1Cl)[C@@H]1[C@H]2C[C@H]2CN1S(=O)(=O)c1ccc(F)cc1 | 6.16

I. C[C@H]1[C@H](F)C[C@@H](C(=O)NCc2cc(-c3cnc(C(F)(F)F)c(F)c3)c(F)cn2)N1S(=O)(=O)c1ccc(F)cc1
II. C[C@H]1[C@H](F)C[C@@H](C(=O)NCc2cc(-c3cnc(C(F)(F)F)nc3)ncc2C(F)(F)F)N1S(=O)(=O)c1ccc(C#N)nc1
III. CC[C@H]1CC[C@@H](C(=O)NCc2cc(-c3cnc(C(F)(F)F)nc3)ncn2)N1S(=O)(=O)c1ccc(F)cc1
Exercise: Rank descending by IC50. Please, when replying, give the labels in the order that was requested.
Key: I, III, II
